Where do the numbers come from? From ChEMBL document CHEMBL3351880.

# Measurement Description: Binding affinity to poly(dA.dT)2 oligonucleotide DNA (unknown origin) assessed as change in ICD signals by CD spectroscopy
Calls of active or inactive are those of the source. No cut-off for these calls is given here.
Outcomes: active, inactive

>>> print(df.to_string())
                                        mol  label_value
0    N=C(N)Nc1ccc2c(c1)Cc1ccc(NC(=N)N)cc1C2     inactive
1  c1cc2c(cc1NC1=NCCN1)Cc1ccc(NC3=NCCN3)cc1-2       active
2  N=C(N)Nc1ccc2c(c1)Cc1ccc(NC3=NCCN3)cc1-2       active
3  c1cc2c(cc1NC1=NCCN1)Cc1ccc(NC3=NCCN3)cc1C2     inactive

---

# Test system: Salmonidae
# Measurement Description: Binding affinity to salmon sperm DNA assessed as change in ICD signals by CD spectroscopy
Activity calls are given as the source filed them. The calls are words filed in the database; no cut-off is given here.
Result Type: Activity

>>> print(df.to_string())
                                        mol    result
0    N=C(N)Nc1ccc2c(c1)Cc1ccc(NC(=N)N)cc1C2  inactive
1  c1cc2c(cc1NC1=NCCN1)Cc1ccc(NC3=NCCN3)cc1C2  inactive
2  c1cc2c(cc1NC1=NCCN1)Cc1ccc(NC3=NCCN3)cc1-2    Active
3  N=C(N)Nc1ccc2c(c1)Cc1ccc(NC3=NCCN3)cc1-2    Active

---

# Measurement Description: Binding affinity to (AT)4 DNA hairpin sequence (unknown origin) by SPR assay
// values below are reported K
Result Type: K (×10⁵ /M)

>>> df
                                        mol  result_type  quantitative_result
0  c1cc(NC2=NCCN2)cc(Oc2ccc(NC3=NCCN3)cc2)c1            K                  1.5
1  c1cc(C2CCN(c3ccc(NC4=NCCN4)cc3)CC2)ccc1NC1=NCCN1            K                  1.4
2  c1cc(NC2=NCCN2)cc(Sc2ccc(NC3=NCCN3)cc2)c1            K                  3.2
3                  Nc1ccc2cc3ccc(N)cc3nc2c1            K                 12.2
4  c1cc2c(cc1NC1=NCCN1)Cc1ccc(NC3=NCCN3)cc1C2            K                  5.1
5  c1cc2c(cc1NC1=NCCN1)Cc1ccc(NC3=NCCN3)cc1-2            K                 36.2
6  c1cc(NC2=NCCN2)ccc1CCc1ccc(NC2=NCCN2)cc1            K                    1
